This listing pairs compounds with measured TGI.
# Tested on: EKVX NSCLC
# ASSAY TEXT: NCI tumour cell line growth inhibition, 48 h

Take a look at these entries with their results.
In [3]: df
Out[3]:
                                   compound  value_observed
0  N=[N+]=NC1C(O)C(CO)OC1n1cnc2c(N)ncnc21 (stereo not drawn)        > 100 µM
1        O=C(/C=C/c1cccc(Br)c1)c1ccc(Cl)cc1         29.7 µM
2  Cc1c(-c2ccccc2)c(C#N)c2nnn(-c3ccc([N+](=O)[O-])cc3)c(=O)n12         23.8 µM

State, for EKVX NSCLC, measured TGI of the compound listed here: `C=C(C)C(=O)Oc1ccc(N=Nc2ccc(C)cc2)ccc1=O`
8.76 µM

Find TGI for `O=C(c1ccccc1)C(C(=O)c1ccccc1)c1nc2ccccc2sc1=O` on EKVX NSCLC and write it down.
> 25 µM

Quote TGI with test system EKVX NSCLC for `Cc1cc(C)c(-c2cc(O)c(-c3c(C)cc(C)cc3C)cc2O)c(C)c1`
> 100 µM

With EKVX NSCLC as the test system, provide measured TGI for this compound: `Oc1ccc(-c2nn3c(CCCCCCCCc4nnc5sc(-c6ccc(O)cc6)nn45)nnc3s2)cc1`
> 100 µM

Using EKVX NSCLC as the test system, report measured TGI of `OC1CCN(c2c3ccccc3nc3ccccc23)CC1` .
> 100 µM

Lab note: record TGI of Cc1cc(OCC(O)CO)ccc1-c1ccccc1 (stereo not drawn) tested on EKVX NSCLC.
> 100 µM

Please report TGI with EKVX NSCLC for item `NC(=O)SCC(=O)Nc1ccc2cccc3c2c1CC3` .
> 100 µM

Print EKVX NSCLC TGI for `O=C(CCl)Nc1ccc2c(c1)C(=O)c1ccccc1C2=O` .
6.35 µM

Please report the measured TGI for `O=[N+]([O-])O` tested on EKVX NSCLC.
> 100 µM

Report the value of TGI obtained on EKVX NSCLC for `CCOC(=O)c1nc2cc(C(F)(F)F)ccc2nc1Nc1cc(OC)c(OC)c(OC)c1` .
> 100 µM

For EKVX NSCLC, give TGI of the listed compound: `N#C/C(=C\c1cc(F)cc(F)c1)c1ccccn1`
44.3 µM

Specify the recorded TGI for `C[n+]1c(-c2ccccc2)cc2/c(=C\c3ccccc3)c3ccccc3n21` , system: EKVX NSCLC.
9.64 µM

# assay system EKVX NSCLC: give TGI of `Cn1cc(-c2nc3c(F)cc4[nH]ncc4c3c3c2CCCC3)c(C(F)(F)F)n1`
36.6 µM

Write TGI of `CC(C)c1cc(C(=O)N2Cc3ccc(CN4CCN(C)CC4)cc3C2)c(O)cc1O` ; system used: EKVX NSCLC
> 100 µM

* * *

# Test system: SR leukemia
# ASSAY TEXT: NCI tumour cell line growth inhibition, 48 h
ENDPOINT NAME: TGI

# count of solved cases: 5
                                   compound  experimental_system  value_observed
0  Cn1c(=O)c2nc3c4ccccc4c(=O)n(C)c3nc2n(C)c1=O          SR leukemia        > 100 µM
1  O=C(Oc1cccc2cccnc12)c1cc2cc(CCl)ccc2oc1=O          SR leukemia        > 100 µM
2        Cn1c(=O)c2nc(N3CCOCC3)cnc2n(C)c1=O          SR leukemia        > 100 µM
3  CC(C)C1CNC2N1C(=O)C2(C)OCc1ccccc1 (configuration not stated)          SR leukemia        > 100 µM
4      COc1cc(Nc2cnc3cc(N)ccc3n2)cc(OC)c1OC          SR leukemia        > 100 µM

Identify measured TGI associated with `COc1cc(/C=N/Nc2ncnc3[nH]ncc23)ccc1O`
> 25 µM

For the compound `CCOC(=O)NC(Nc1ncn(C(NC(=O)OCC)(C(F)(F)F)C(F)(F)F)n1)(C(F)(F)F)C(F)(F)F` , report TGI.
> 100 µM

Give the reported TGI for this compound. `O=C(NNC(=O)c1ccccc1O)c1ccccc1O`
> 31.1 µM

* * *

# Tested on: HCT-15 colon
# ASSAY TEXT: NCI tumour cell line growth inhibition, 48 h
ENDPOINT NAME: TGI

>>> print(df.to_string())
                                   compound  value_observed
0  CCCC[C@@H](C)/C=C1\CN2CCC[C@H]2[C@@](C)(O)[C@@H]1O        > 100 µM
1             Cn1ncc2c(Sc3ccc(Cl)cc3)ncnc21        > 100 µM
2                  COC(OC)(c1ccccc1)C(Br)Br         42.4 µM
3  COc1cc(-c2nc3ccc(C)cc3[nH]2)ccc1OCC(=O)N=Nc1c(O)[nH]c2ccc(Cl)cc12        > 100 µM

Output TGI of `Cc1cccc(NC(=O)/C=C/c2ccccc2)c1C`
> 100 µM

Output TGI of `O=C1/C(=C/c2ccc(Cl)cc2)COc2ccc(O)cc21`
4.04 µM

Return TGI for the following compound: O=C1Cc2c([nH]c3ccccc23)C2(CC3CCCCN13)OCCO2 (stereo unspecified)
> 100 µM

Give the value of TGI reported for the following: COC1CC2C3/C(=N/Nc4ccc([N+](=O)[O-])cc4[N+](=O)[O-])CCC2(C)C3C1 (stereo unspecified)
> 100 µM

Determine from records and report TGI for `C[n+]1c(-c2ccccc2)cc2/c(=C\c3ccccc3)c3ccccc3n21`
11.5 µM

Please indicate TGI recorded for `COc1ccc(/C=C(\C#N)c2ccc(OC)cc2)cc1`
> 100 µM

In one line, give reported TGI of the entry `COc1ccc(/C=C(\C#N)c2nc3ccccc3c(=O)[nH]2)cc1` .
> 100 µM

Respond only with TGI recorded for `Cc1cc(-c2ncc(-c3cccnc3)cc2/C=C/c2ccccc2)cnc1-c1cccnc1`
> 100 µM

Look up TGI of `Cc1[nH]c2nccn2c(=O)c1CCCl` and report it.
> 100 µM

* * *

The following molecules are shown together with reported TGI values.
# Test system: SN12C renal
# ASSAY TEXT: NCI tumour cell line growth inhibition, 48 h

# example entries with known answers
>>> df
                                 cpd_smiles  experimental_system  value_observed
0  CCCCc1ccc(-n2c(C)c(COC(=O)NC)c(COC(=O)NC)c2C)cc1          SN12C renal         14.5 µM
1             Cn1ncc2c(Sc3ccc(Cl)cc3)ncnc21          SN12C renal        > 100 µM

Specify measured TGI for `CCCCNc1nc2nc[nH]c2c(=O)[nH]1` .
> 100 µM

Please look at this molecule and report its TGI: `O=S1CCN(Cc2ccc(-c3ccc4ncnc(Nc5ccc(OCc6cccc(F)c6)c(Cl)c5)c4c3)o2)CC1`
> 25 µM

Indicate its recorded TGI; the molecule in question is `COc1ccc(OC)c(NC(=O)C2=C(C)NC(C)=C(C(=O)Nc3cc(OC)ccc3OC)C2c2ccco2)c1`
> 100 µM

* * *

# Tested on: MOLT-4 leukemia
# ASSAY TEXT: NCI tumour cell line growth inhibition, 48 h
ENDPOINT NAME: TGI

// known answers, use as guide
>>> df
                                   compound  experimental_system  endpoint_name  value_observed
0       COC(=O)/C(C#N)=C(\Nc1ccccc1)N1CCCC1      MOLT-4 leukemia            TGI        > 100 µM
1               COc1cc(/C=N\O)cc(/C=N/O)c1O      MOLT-4 leukemia            TGI           77 µM
2  COC(=O)C(CC(=O)c1ccccc1)c1ccccc1NC(C)=O (configuration not stated)      MOLT-4 leukemia            TGI        > 100 µM
3         CN(C)c1ccc(/C=C/c2nc3ccccc3s2)cc1      MOLT-4 leukemia            TGI        > 100 µM
4  CCN(CC)CCC(=O)NC1c2ccccc2Oc2c(C)cccc21 (configuration not stated)      MOLT-4 leukemia            TGI        > 100 µM

Find the measured TGI of `Cc1ccc(C2(c3ccc(C)cc3)SC(=C(C#N)C#N)c3ccccc32)cc1` and report it.
> 100 µM

Quote TGI reported for `COc1cc(C(=O)NO)ccc1O` please.
> 100 µM

* * *

# Test system: UACC-62 melanoma
# ASSAY TEXT: NCI tumour cell line growth inhibition, 48 h; in the data active = GI50 below about 0.43 µM; inactive = the rest
Allowed answers: Yes for active, No for inactive

Example entries begin here.
>>> print(df.to_string())
                                 cpd_smiles  assigned_label
0             Cn1ncc2c(Sc3ccc(Cl)cc3)ncnc21              No
1  FC(F)(F)c1ccc(-c2cnc(Cl)nc2NC2CCCCCC2)cc1              No

With those in mind, consider the next compound.
Kindly provide the recorded test outcome for the following compound: `CS(=O)(=O)Nc1cc(-c2ccc3ncnc(Nc4ccc5c(cnn5Cc5cccc(F)c5)c4)c3c2)cnc1Cl`
Yes
